target: (hu)CMKLR1 L1.2 cells (Homo sapiens, UniProt Q99788); construct: expressed in transfected cells; host or cells: L1.2 pre-B cell lymphoma cells; experiment: Chemotaxis assay (chemerin-dependent CMKLR1+ cell migration); format: cell-based; conditions: Table 3; migration toward huChemerin, 2 h transwell; read-out: Chemotaxis IC50 μM mean ± SEM (n)
Sequence (Q99788 whole entry): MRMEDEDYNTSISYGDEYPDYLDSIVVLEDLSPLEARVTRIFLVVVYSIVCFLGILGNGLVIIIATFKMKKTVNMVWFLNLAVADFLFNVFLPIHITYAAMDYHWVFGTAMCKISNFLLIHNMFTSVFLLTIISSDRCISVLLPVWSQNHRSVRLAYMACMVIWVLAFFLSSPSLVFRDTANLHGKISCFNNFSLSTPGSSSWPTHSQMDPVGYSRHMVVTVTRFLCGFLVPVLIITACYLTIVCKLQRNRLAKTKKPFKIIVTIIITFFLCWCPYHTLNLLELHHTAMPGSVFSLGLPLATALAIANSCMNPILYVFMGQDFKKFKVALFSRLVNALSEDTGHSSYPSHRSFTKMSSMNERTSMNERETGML
Endpoint: IC50 (µM)

A selection of reference data follows.
>  <Molecule>
C[N+](C)(C)CCC(=O)c1ccc2ccccc2c1 [Compound 23]

>  <Uom>
µM

>  <IC50>
24.1

$$$$
>  <Molecule>
COc1cccc(OC)c1C(=O)CC[N+](C)(C)C.[I-] [Compound 30]

>  <Uom>
µM

>  <IC50>
6.8

$$$$

A = COc1ccc(C(=O)CC[N+](C)(C)C)c(OC)c1 [Compound 29]
B = COc1ccccc1C(=O)CC[N+](C)(C)C [Compound 26]
Quick one: lower IC50, A or B ? Pick one and reply with its label. B
